Biological target: Bromodomain-containing protein 4 (Homo sapiens, UniProt O60885)
Experiment: Inhibition of His-tagged BRD4 bromodomain-1 (unknown origin) expressed in Escherichia coli BL21(DE3) at 20 uM using SGRGK(Ac)-GG-K(Ac)-GLG-K(Ac)-GGA-K(Ac)-RHRKVGG-K-Biotin as substrate preincubated for 15 mins followed by substrate addition measured after 10 mins by Alphascreen assay relative to control
Active and inactive are the calls of the source. No cut-off for these calls is given here.

>  <chemical_structure>
CCN1C(=O)c2cccc3c(S(=O)(=O)N4CCOCC4)ccc1c23

>  <inhibition>
97%

$$$$
>  <chemical_structure>
CCCN1C(=O)c2cccc3c(S(=O)(=O)N4CCCC4)ccc1c23

>  <inhibition>
15%

$$$$
>  <chemical_structure>
CCN1C(=O)c2cccc3c(S(=O)(=O)N4CC[C@H](N)C4)ccc1c23

>  <inhibition>
inactive

$$$$
>  <chemical_structure>
CN(C)C(=O)CN1C(=O)c2cccc3c(S(=O)(=O)N4CCCC4)ccc1c23

>  <inhibition>
inactive

$$$$
>  <chemical_structure>
CC(=O)N1C(=O)c2cccc3c(S(=O)(=O)N4CCCC4)ccc1c23

>  <inhibition>
9%

$$$$
>  <chemical_structure>
CCN1C(=O)c2cccc3c(S(=O)(=O)N4CC[C@H](O)C4)ccc1c23

>  <inhibition>
88%

$$$$
>  <chemical_structure>
CCN1C(=O)c2cccc3c(S(=O)(=O)N4CCC(NC(=O)OC(C)(C)C)CC4)ccc1c23

>  <inhibition>
45%

$$$$
>  <chemical_structure>
CCN1C(=O)c2cccc3c(S(=O)(=O)N4CCC[C@@H]4C(=O)Nc4ccccc4O)ccc1c23

>  <inhibition>
inactive

$$$$
>  <chemical_structure>
CCN1C(=O)c2cccc3c(S(=O)(=O)N4CCC[C@@H]4C(=O)O)ccc1c23

>  <inhibition>
98%

$$$$
>  <chemical_structure>
CCN1C(=O)c2cccc3c(S(=O)(=O)N4CCC[C@@H]4C(=O)Nc4ccc(O)cc4)ccc1c23

>  <inhibition>
63%

$$$$
>  <chemical_structure>
CCN1C(=O)c2cccc3c(S(=O)(=O)N4CCC(CNC(=O)OC(C)(C)C)CC4)ccc1c23

>  <inhibition>
18%

$$$$
>  <chemical_structure>
CCN1C(=O)c2cccc3c(S(=O)(=O)Nc4ccccc4OC)ccc1c23

>  <inhibition>
82%

$$$$
>  <chemical_structure>
CCN1C(=O)c2cccc3c(S(=O)(=O)N4CCC[C@@H](O)C4)ccc1c23

>  <inhibition>
27%

$$$$
>  <chemical_structure>
CCN1C(=O)c2cccc3c(S(=O)(=O)N4CCC[C@H](N)C4)ccc1c23

>  <inhibition>
inactive

$$$$
>  <chemical_structure>
CCN1C(=O)c2cccc3c(S(=O)(=O)N4CCC[C@@H]4C(=O)Nc4ccc(Cl)cc4)ccc1c23

>  <inhibition>
89%

$$$$
>  <chemical_structure>
CCN1C(=O)c2cccc3c(S(=O)(=O)N4CCC[C@H](NC(=O)OC(C)(C)C)C4)ccc1c23

>  <inhibition>
20%

$$$$
>  <chemical_structure>
CCN1C(=O)c2cccc3c(S(=O)(=O)N4CCCCC4)ccc1c23

>  <inhibition>
99%

$$$$
>  <chemical_structure>
CCN1C(=O)c2cccc3c(S(=O)(=O)N4CCC[C@@H]4C(=O)Nc4ccccc4)ccc1c23

>  <inhibition>
100%

$$$$
>  <chemical_structure>
CCN1C(=O)c2cccc3c(S(=O)(=O)N4CCC[C@H](O)C4)ccc1c23

>  <inhibition>
14%

$$$$
>  <chemical_structure>
CCN1C(=O)c2cccc3c(S(=O)(=O)N4CC[C@@H](N)C4)ccc1c23

>  <inhibition>
inactive

$$$$

From: ChEMBL document CHEMBL4152245
